Conditions: buffer; pH 7.4; 200.0 µM
assay-endpoint: solubility kinetic (µg/mL)
Give bare numbers, in µg/mL.

O=S(=O)(NCCc1ccccc1)c1cccs1; 34

Would you mind listing solubility kinetic for each of the following molecules?
1. O=c1cc(O)c2sc(Nc3cccc(C(F)(F)F)c3)nc2[nH]1
2. c1csc(-c2nc(N3CCOCC3)c3ccccc3n2)c1
3. COC(=O)c1ccc(C2C(C#N)=C(N)Oc3cc(N)ccc32)cc1 (stereo unspecified)
4. CN(C)c1cccc(NC(=O)c2cccc3ccccc23)c1
5. O=C(COC(=O)CC1CCCC1)Nc1ccc(OC(F)F)cc1
6. O=C(Nc1ccc(F)c(Cl)c1)C1CC(=O)n2c(nc3ccccc32)N1 (stereo unspecified)

[36.9, 2, 11.2, 6.1, 42.1, 0.4]

Would you mind listing solubility kinetic for each of the following molecules?
1. CC(=O)Oc1ccc2c(=O)c(-c3nc4ccccc4s3)coc2c1
2. COC(=O)c1ccccc1NC(=O)NCCc1ccccc1OC.Cl
3. CCOc1cc2c(cc1/C=C1/NC(=O)N(CC(=O)OC)C1=O)OCO2
4. CCOC(=O)Cc1csc(NC(=O)c2cc(=O)c3ccccc3o2)n1
5. O=C(O)c1ccc2c(c1)C(=O)N(c1ccc(C(=O)OCC(=O)c3ccccc3)cc1)C2=O
6. CCOc1ccc(NCCC(O)c2ccc(F)cc2)cc1 (stereo unspecified)
7. O=C(CC(c1ccccc1)c1ccccc1)NCCOCc1ccccc1

1: 1; 2: 6.3; 3: 2.9; 4: 51.8; 5: 45.4; 6: 30.9; 7: 20.1

Would you mind listing solubility kinetic for each of the following molecules?
1. Cl.O=C(CN1CCCC1)Nc1ccc2c(c1)CCC2
2. CC1SCC(=O)N(CC(=O)NC2CCCCC2)C1=O (stereo unspecified)
3. Cc1cc(S(=O)(=O)Nc2cccnc2)c(Cl)cc1Cl
4. N#Cc1ccsc1NC(=O)COC(=O)c1ccc(Br)o1

1: 41.3; 2: 37.9; 3: 4.5; 4: 10.5

----------
Conditions: buffer; pH 7.4; 200.0 µM
assay-endpoint: solubility kinetic

Past entries and their recorded results:
CCC(=O)Nc1ccc2c(c1)nc(CCN1CCC(C)CC1)n2C; > 0.0493 mg/mL
O=C(COc1cccnc1[N+](=O)[O-])NCc1cccs1; > 0.044 mg/mL
Cc1cc(C(=O)Nc2ccc(F)cc2F)on1; > 0.0357 mg/mL

Would you mind listing solubility kinetic for each of the following compounds?
1. COc1ccc(C(=O)C(C)OC(=O)CN2C(=O)c3ccccc3C2=O)cc1 (stereo not drawn)
2. COc1cccc(C(=O)NCCCNC(=O)c2cccc(OC)c2)c1
3. Cc1nnc(NC(=O)C2CCN(S(=O)(=O)c3ccc(F)c(F)c3)CC2)o1
4. CC(C)(C(=O)c1cccnc1)c1cccnc1
5. OCCNCC(O)CN1c2ccccc2Sc2ccccc21 (stereo not drawn)

["> 0.0551 mg/mL", "> 0.0514 mg/mL", "> 0.058 mg/mL", "> 0.0339 mg/mL", "> 0.0475 mg/mL"]

----------
Conditions: buffer; pH 7.4; 200.0 µM
I'd be grateful if you could share measured solubility kinetic for these entries.

Would you mind listing solubility kinetic for each of the following compounds?
1. O=c1cc(NCc2ccccc2)[nH]c(=O)[nH]1
2. CC(C)(CO)NC(=S)NCc1ccco1

["> 32.6 µg/mL", "> 34.2 µg/mL"]

Would you mind listing solubility kinetic for each of the following compounds?
1. O=C(O)c1nn(-c2cccc(C(F)(F)F)c2)ccc1=O
2. Cc1cccc(NC(=O)NCC2CC2)c1
3. O=C(/C=C/c1ccccc1[N+](=O)[O-])N1CCOCC1
4. CCc1cc(=O)oc2cc(OCC(=O)N3CCC[C@H]3C(=O)O)ccc12

> 42.6 µg/mL
> 30.6 µg/mL
> 39.3 µg/mL
> 51.8 µg/mL

Which solubility kinetic is listed for Cc1ccc(NC(=O)CN(C)C(=O)CSc2nccn2C)cc1 ?
> 49.9 µg/mL
